- system.tested: recombinant soluble homotrimeric HA, A/Netherlands/219/03 H7N7 (Influenza A virus A/Netherlands/219/03(H7N7))
- protocol.description: microarray, transfection SN IgG, trimeric HA
- experimental.context: remark: other sources report otherwise
Field: Trimeric HA Binding: RLU. Provide a value for each of the binders that follow.
// units = RLU; emit number, no label

Value of measured Trimeric HA Binding: RLU for the entry TCN-557 (5081_A04) (antibody, V domains shown) VH: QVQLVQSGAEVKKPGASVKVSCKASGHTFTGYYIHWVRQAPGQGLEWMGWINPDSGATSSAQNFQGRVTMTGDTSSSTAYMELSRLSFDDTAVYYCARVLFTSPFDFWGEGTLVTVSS VL: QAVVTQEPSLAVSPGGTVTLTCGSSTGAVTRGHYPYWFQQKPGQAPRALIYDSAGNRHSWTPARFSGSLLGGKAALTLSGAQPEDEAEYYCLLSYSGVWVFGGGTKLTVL : 53700

Value of measured Trimeric HA Binding: RLU for the entry TCN-558 (5248_H10b) (antibody, V domains shown) VH: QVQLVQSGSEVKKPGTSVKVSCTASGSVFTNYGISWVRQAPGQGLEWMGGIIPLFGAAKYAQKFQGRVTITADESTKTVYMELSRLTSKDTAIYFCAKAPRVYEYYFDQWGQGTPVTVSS VL: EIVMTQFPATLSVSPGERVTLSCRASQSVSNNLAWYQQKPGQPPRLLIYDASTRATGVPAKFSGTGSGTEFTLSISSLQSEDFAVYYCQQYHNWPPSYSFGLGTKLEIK : 5840
